Would you mind telling me the reported inhibition at 0.001 µM of each entry?
# Target under test: 5-HT2B receptor (Homo sapiens, UniProt P41595)
# Construct: host or cells: CHO-K1
# Sequence (P41595 whole entry): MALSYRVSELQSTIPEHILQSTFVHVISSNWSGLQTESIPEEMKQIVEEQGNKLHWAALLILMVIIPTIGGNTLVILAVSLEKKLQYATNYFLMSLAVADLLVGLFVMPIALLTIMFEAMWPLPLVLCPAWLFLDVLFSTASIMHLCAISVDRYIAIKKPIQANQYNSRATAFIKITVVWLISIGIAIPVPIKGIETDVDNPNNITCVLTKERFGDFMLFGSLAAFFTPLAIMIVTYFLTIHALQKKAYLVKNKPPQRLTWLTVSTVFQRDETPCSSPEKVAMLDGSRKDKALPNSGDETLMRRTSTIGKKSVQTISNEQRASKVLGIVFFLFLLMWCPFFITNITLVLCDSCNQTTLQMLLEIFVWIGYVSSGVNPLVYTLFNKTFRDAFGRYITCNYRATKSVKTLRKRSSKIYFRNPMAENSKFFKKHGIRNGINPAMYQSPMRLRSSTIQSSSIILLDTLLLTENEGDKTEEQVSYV
# Measurement notes: 5-HT2B receptor binding, ligand displacement assay with 3H-LSD radioligand
# Run conditions: 1 nM compound, human receptor in CHO-K1
Counter-ions that a name gives are not always drawn.
Give bare numbers, in %.

Example cases with answers are listed next.
- Compound: "CC1CN(C(=N)N)c2ccc3c(Br)cccc3c21.Cl (stereo not shown) [Example 2, hydrochloride]"
  Target under test: "5-HT2B receptor (Homo sapiens, UniProt P41595)"
  Value kind: "inhibition at 0.001 µM"
  Result units: "%"
  Quantitative result: 72
- Compound: "CC1CN(C(=N)N)c2ccc3c(-c4ccccc4)cccc3c21 (stereo not shown) [Example 41, hydrochloride]"
  Target under test: "5-HT2B receptor (Homo sapiens, UniProt P41595)"
  Value kind: "inhibition at 0.001 µM"
  Result units: "%"
  Quantitative result: 0
- Compound: "CC1CN(C(=N)N)c2ncc3ccccc3c21 (stereo not shown) [Example 4, hydrochloride]"
  Target under test: "5-HT2B receptor (Homo sapiens, UniProt P41595)"
  Value kind: "inhibition at 0.001 µM"
  Result units: "%"
  Quantitative result: -1

Give me inhibition at 0.001 µM for each of these compounds, listed below.
1. CNC(=N)N1CC(C)c2c1ccc1ccccc21 (stereo not shown) [Example 6, hydrochloride]
2. CC1CN(C(=N)N)c2ccc3c(C(F)(F)F)cccc3c21 (stereo not shown) [Example 35]
3. CC1CN(C(=N)N)c2ccc3cc(F)ccc3c21.Cl (stereo not shown) [Example 1, hydrochloride]
4. CC1CN(C(=N)N)c2ccc3c(F)cccc3c21 (stereo not shown) [Example 33]
5. CC1CN(C(=N)NCc2ccc(F)c(F)c2)c2ccc3ccccc3c21 (stereo not shown) [Example 10, hydrochloride]
6. CCCc1cccc2c3c(ccc12)N(C(=N)N)CC3C (stereo not shown) [Example 43, hydrochloride]
7. COc1cc2c(c3ccccc13)C(C)CN2C(=N)N (stereo not shown) [Example 44, hydrochloride]
8. CC1CN(C(=N)N)c2cnc3ccccc3c21 (stereo not shown) [Example 5, hydrochloride]

Response given:
[18, 11, 9, 28, 7, 21, 9, 11]

For every item in the list below, what is its measured inhibition at 0.001 µM?
1. CCCCNC(=N)N1CC(C)c2c1ccc1ccccc21 (stereo not shown) [Example 7, hydrochloride]
2. CC1CN(C(=N)N)c2ccc3c(Cl)cccc3c21.Cl (stereo not shown) [Example 11, hydrochloride]

Response given:
1: 32; 2: 63

====

# Target under test: 5-HT2B receptor (Homo sapiens)
# Construct: host or cells: CHO-K1
# Measurement notes: 5-HT2B receptor binding, ligand displacement assay, alternative (*) with 3H-mesulergine
# Run conditions: 100 nM compound; * 3H-mesulergine radioligand, SB 206553 reference
Marks after values point to notes of the source that are not given here.
Value kind: 5-HT2B receptor binding (% displacement) 100 nM

Previously resolved entries follow.
- Molecule: "CC1CN(C(=N)N)c2ccc3c(S(C)(=O)=O)cccc3c21 (stereo not shown)"
  Result: "28* %"
- Molecule: "COc1cccc2c3c(ccc12)N(C(=N)N)CC3C (stereo not shown)"
  Result: "90* %"
- Molecule: "CC1CN(C(=N)N)c2ccc3c([S+](C)[O-])cccc3c21 (stereo not shown)"
  Result: "20* %"

Batch request: 5-HT2B receptor binding (% displacement) 100 nM per item, same order as input.
1. CC1CN(C(=N)N)c2ccc3c(I)cccc3c21 (stereo not shown)
2. C#Cc1cccc2c3c(ccc12)N(C(=N)N)CC3C (stereo not shown)
3. CSc1cccc2c3c(ccc12)N(C(=N)N)CC3C (stereo not shown)
4. CC1CN(C(=N)N)c2ccc3c(C(F)(F)F)cccc3c21 (stereo not shown)

Response given:
102* %
94* %
94* %
91%

====

# Target under test: 5-HT2B receptor (Homo sapiens, UniProt P41595)
# Construct: host or cells: CHO-K1
# Measurement notes: 5-HT2B receptor binding, ligand displacement assay, alternative (*) with 3H-mesulergine
# Run conditions: 10 nM compound; * 3H-mesulergine radioligand, SB 206553 reference
# Procedure: 5-HT2B receptor binding (performed at Eurofins Panlabs Taiwan, Ltd.) to human receptor protein expressed in CHO-K1 cells was determined in a ligand displacement assay using ^3H-lysergic acid diethylamide (LSD) as radioligand and ketanserine as a standard reference compound, or alternatively*, with ^3H-mesulergine and SB 206553 as reference. Data is presented as % displacement of radioligand at indicated compound concentrations, see Table 1.
Kind request: treat 50% as inclusive, so inhibition at 0.01 µM at 50% or higher is met, anything lower is not met.

- Compound: "CC1CN(C(=N)N)c2ccc3c(S(C)(=O)=O)cccc3c21 (stereo not shown) [Example 39]"
  Class: "not met"
- Compound: "CC1CN(C(=N)N)c2ccc3c(C(F)(F)F)cccc3c21 (stereo not shown) [Example 35]"
  Class: "met"
- Compound: "C#Cc1cccc2c3c(ccc12)N(C(=N)N)CC3C (stereo not shown) [Example 40]"
  Class: "met"
- Compound: "CC1CN(C(=N)N)c2ccc3c(I)cccc3c21 (stereo not shown) [Example 34]"
  Class: "met"
- Compound: "COc1cccc2c3c(ccc12)N(C(=N)N)CC3C (stereo not shown) [Example 36]"
  Class: "not met"

Challenge: State whether the measured inhibition at 0.01 µM reaches 50%, counting equality as reaching it, for CC1CN(C(=N)N)c2ccc3c([S+](C)[O-])cccc3c21 (stereo not shown) [Example 38]
Response given: not met

Challenge: Could you verify whether the entry CSc1cccc2c3c(ccc12)N(C(=N)N)CC3C (stereo not shown) [Example 37] shows inhibition at 0.01 µM of no less than 50%?
Response given: met

====

Consider the following molecules; for each one, report its inhibition at 0.001 µM.
# Target under test: 5-HT2B receptor (Homo sapiens, UniProt P41595)
# Construct: host or cells: CHO-K1
# Measurement notes: 5-HT2B receptor binding, ligand displacement assay with 3H-LSD radioligand
# Run conditions: 1 nM compound, human receptor in CHO-K1
# Procedure: 5-HT2B receptor binding (performed at Eurofins Panlabs Taiwan, Ltd.) to human receptor protein expressed in CHO-K1 cells was determined in a ligand displacement assay using ^3H-lysergic acid diethylamide (LSD) as radioligand and ketanserine as a standard reference compound, or alternatively*, with ^3H-mesulergine and SB 206553 as reference. Data is presented as % displacement of radioligand at indicated compound concentrations, see Table 1.
Counter-ions that a name gives are not always drawn.
Give bare numbers, in %.

- Molecule: "CC1CN(C(=N)NCc2ccccc2)c2ccc3ccccc3c21 (centres unmarked) [Example 8, hydrochloride]"
  Target under test: "5-HT2B receptor (Homo sapiens, UniProt P41595)"
  inhibition at 0.001 µM, %: 30

Fill in inhibition at 0.001 µM for each of the 3 molecules listed.
1. CC1CN(C(=N)N)c2cc(F)c3c(Cl)cccc3c21 (centres unmarked) [Example 45, hydrochloride]
2. CC1CN(C(=N)NCc2ccc(Cl)cc2)c2ccc3ccccc3c21 (centres unmarked) [Example 9, hydrochloride]
3. CC1CN(C(=N)NCc2ccc(F)cc2)c2ccc3c(Br)cccc3c21 (centres unmarked) [Example 26]

Response given:
[77, 26, 43]

Lab book: inhibition at 0.001 µM of CC1CN(C(=N)N)c2ccc3c(C4CC4)cccc3c21 (centres unmarked) [Example 42, hydrochloride] noted as 1

====

Provide the reported inhibition at 0.1 µM of each item.
# Target under test: 5-HT2B receptor (Homo sapiens, UniProt P41595)
# Construct: host or cells: CHO-K1
# Measurement notes: 5-HT2B receptor binding, ligand displacement assay with 3H-LSD radioligand
# Run conditions: 100 nM compound, human receptor in CHO-K1
Counter-ions that a name gives are not always drawn.

- Molecule: "CC1CN(C(=N)N)c2ccc3cc(F)ccc3c21.Cl (centres unmarked) [Example 1, hydrochloride]"
  inhibition at 0.1 µM: "88%"
- Molecule: "CC1CN(C(=N)N)c2ncc3ccccc3c21 (centres unmarked) [Example 4, hydrochloride]"
  inhibition at 0.1 µM: "64%"
- Molecule: "CC1CN(C(=N)N)c2ccc3c(Br)cccc3c21.Cl (centres unmarked) [Example 2, hydrochloride]"
  inhibition at 0.1 µM: "98%"
- Molecule: "CC1CN(C(=N)N)c2ccc3c(C4CC4)cccc3c21 (centres unmarked) [Example 42, hydrochloride]"
  inhibition at 0.1 µM: "96%"

Next up:
Reported inhibition at 0.1 µM for CC1CN(C(=N)N)c2cnc3ccccc3c21 (centres unmarked) [Example 5, hydrochloride] was 71%

====

# Target under test: 5-HT2B receptor (Homo sapiens)
# Construct: host or cells: CHO-K1
# Measurement notes: 5-HT2B receptor antagonism, inhibition of 5-HT stimulated IP-1 accumulation (HTRF) in CHO-K1 cells
# Type: cell-based
# Run conditions: 100 nM compound, 5-HT (5 nM) stimulated IP-1 accumulation
Provide the reported inhibition at 0.1 µM of each item.
Give bare numbers, in %.

The cases that follow already have their inhibition at 0.1 µM on record.
- Molecule: "CC1CN(C(=N)N)c2ccc3ccccc3c21.Cl (centres unmarked) [Example 3, hydrochloride]"
  inhibition at 0.1 µM / %: 100
- Molecule: "CC1CN(C(=N)N)c2ccc3c(Br)cccc3c21.Cl (centres unmarked) [Example 2, hydrochloride]"
  inhibition at 0.1 µM / %: 95
- Molecule: "CC1CN(C(=N)N)c2ccc3c(Cl)cccc3c21.Cl (centres unmarked) [Example 11, hydrochloride]"
  inhibition at 0.1 µM / %: 99
- Molecule: "CC1CN(C(=N)N)c2ccc3cc(F)ccc3c21.Cl (centres unmarked) [Example 1, hydrochloride]"
  inhibition at 0.1 µM / %: 80

Consider now this further molecule.
inhibition at 0.1 µM of CC1CN(C(=N)N)c2ccc3c(F)cccc3c21 (centres unmarked) [Example 33] , assay on 5-HT2B receptor (Homo sapiens), is 99

Cited source for all entries: patent US20220267268A1
